- experimental protocol: Permeability of the compound at donor pH 7.4 and acceptor pH 7.4 after 3 hrs incubation by PAMPA analysis
- Format: ADME
- run parameters: read-out: permeability
Peptide text beside a SMILES is read from it.

molecule	Papp at 3 h, ×10⁻⁶ cm/s
CC(C)C[C@@H]1NC(=O)[C@H](Cc2ccc(O)cc2)NC(=O)[C@@H]2CCCN2C(=O)[C@H](CC(C)C)NC(=O)[C@H](CC(C)C)NC(=O)[C@H](Cc2ccccc2)NC1=O (cyclo(FLLPYL))	20
CC(C)C[C@@H]1NC(=O)[C@H](Cc2ccc(O)cc2)NC(=O)[C@@H]2CCCN2C(=O)[C@H](CC(C)C)NC(=O)[C@](C)(CC(C)C)NC(=O)[C@@H](CC(C)C)NC1=O	35
CC(C)C[C@@H]1NC(=O)[C@@H](CC(C)C)NC(=O)[C@H](CC(C)C)NC(=O)[C@@](C)(CC(C)C)NC(=O)[C@@H](Cc2ccc(O)cc2)NC(=O)[C@@H]2CCCN2C(=O)[C@H](CC(C)C)NC1=O	30
